Please respond with reported Response for every item in the list.
# assayed-target: coca-5HT3 (α7(L141G,G175K,Y210F,Y217F)–5HT3) (Homo sapiens, UniProt P36544, G175K/L141G/Y210F/Y217F)
# Sequence (P36544 23-224 L141G/G175K/Y210F/Y217F): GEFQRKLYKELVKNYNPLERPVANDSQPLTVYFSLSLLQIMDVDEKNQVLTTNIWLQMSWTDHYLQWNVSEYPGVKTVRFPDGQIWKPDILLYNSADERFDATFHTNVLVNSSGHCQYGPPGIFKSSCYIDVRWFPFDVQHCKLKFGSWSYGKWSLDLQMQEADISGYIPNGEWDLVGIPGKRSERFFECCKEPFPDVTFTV
# Sequence (P23979 242-489, further chain): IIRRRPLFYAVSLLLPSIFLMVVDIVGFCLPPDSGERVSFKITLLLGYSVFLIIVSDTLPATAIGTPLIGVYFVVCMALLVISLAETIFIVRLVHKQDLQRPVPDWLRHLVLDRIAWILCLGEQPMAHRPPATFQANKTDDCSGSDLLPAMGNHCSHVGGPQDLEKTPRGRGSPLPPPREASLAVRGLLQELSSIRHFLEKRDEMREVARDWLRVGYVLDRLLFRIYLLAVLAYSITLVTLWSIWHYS
# method: Membrane potential assay, coca-5HT3 in HEK293
# particulars: coca-5HT3; conc 1.37174 uM; ED Fig 3a
Numbers only.

Please review the following examples before continuing.
molecule="NCCc1ccc(O)c(O)c1 [Dopamine]" measured_value=0.062
molecule="N[C@@H](CCC(=O)O)C(=O)O [Glutmate]" measured_value=0.069
molecule="N[C@@H](CC(=O)O)C(=O)O [Aspartate]" measured_value=0.034
molecule="CNC[C@H](O)c1ccc(O)c(O)c1 [Epinephrine]" measured_value=0.141
molecule="COC(=O)[C@H]1[C@@H](OC(=O)c2ccccc2)C[C@@H]2CC[C@H]1N2C [cocaine]" measured_value=0.237

Now consider the entry below.
Query: Recorded Response for NC[C@H](O)c1ccc(O)c(O)c1 [Norepinephrine] , please?
Response: 0.081

This collection of values is drawn from paper PMC12527922.
